target.system: Tyrosine-protein kinase Lck (Bos taurus)
test.description: Ability to inhibit protein-tyrosine kinase activity of p56lck (isolated from bovine thymus) in vitro.
pIC50: −log10 of the molar value.
# maps each entry to its pIC50
assay.readout: pIC50

chemical.smiles | assay.readout | obs.value
COC(=O)c1c(-c2ccc(OC)c(OC)c2)oc2ccccc2c1=O | pIC50 | < 2.70
Nc1ccc(-c2cc(=O)c3cc(O)ccc3o2)cc1 | pIC50 | 5.92
COC(=O)CC(=O)c1cc(OC)ccc1O | pIC50 | < 2.70
O=C(O)c1c(-c2ccc(Br)cc2)oc2ccccc2c1=O | pIC50 | < 2.70
COC(=O)c1c(-c2ccc(OCc3ccccc3)cc2)oc2ccccc2c1=O | pIC50 | < 2.70

Data provenance is BindingDB's records for doi:10.1021/jm00106a047.
